Known SH2 binding enrichment of a selection of sequences
molecular target: c-Src SH2; assay: SH2 binding enrichment of the phosphorylated peptide, bacterial display (enrichment ratio); higher = better substrate or ligand; peptides without Tyr show the background
Note: the reply should be a number with no unit written.

Examples with their reported SH2 binding enrichment follow.
| seq.string | result.type | recorded.result |
| --- | --- | --- |
| ICRWVYPLTPE [EIF2B5_Y319_R315C] | SH2 binding enrichment | 0.538 |
| YKTPIYPYLLP [PLD2_Y578_T577I] | SH2 binding enrichment | 2.4 |
| NQILPYIKELV [PPP2R1B_Y341] | SH2 binding enrichment | 0.55 |
| EVEPRYVVLFD [ERCC4_Y577_YF] | SH2 binding enrichment | 3.48 |
| APQFTYAQGGQ [FLNA_Y1763_YF] | SH2 binding enrichment | 0.546 |
| STLEVYRCHPP [IL21R_Y317_S318R] | SH2 binding enrichment | 0.42 |
| LMVFEYMRHGN [NTRK1_Y591_D596N] | SH2 binding enrichment | 1.19 |
| AMGAVYQAAAL [HYOU1_Y421] | SH2 binding enrichment | 1.08 |

So for IFCIQYNICAF [MYH4_Y820_R823C] , the logged SH2 binding enrichment turned out to be 1.21

SH2 binding enrichment measured on NIEPVYLNMLL [ATR_Y317] = 0.402

The value of SH2 binding enrichment measured for the sequence SSYDTYHLSRE [KIR3DL2_Y253_I252T] turned out to be 0.632

Consider VVQGLYKSMPK [KBTBD2_Y250] . Its measured SH2 binding enrichment is 0.429

The measured SH2 binding enrichment associated with TGDFGYRTPGF [TNS2_Y668_A670T_YF] reads 0.529

The sequence listed as FTFDPYSEEEP [IL2RB_Y387_D391E_YF] shows SH2 binding enrichment equal to 0.654

----------
molecular target: Jak2 (UniProt O60674); assay: phosphorylation enrichment, bacterial display (enrichment ratio); higher = better substrate or ligand; peptides without Tyr show the background
Sequence (O60674 whole entry, looked up): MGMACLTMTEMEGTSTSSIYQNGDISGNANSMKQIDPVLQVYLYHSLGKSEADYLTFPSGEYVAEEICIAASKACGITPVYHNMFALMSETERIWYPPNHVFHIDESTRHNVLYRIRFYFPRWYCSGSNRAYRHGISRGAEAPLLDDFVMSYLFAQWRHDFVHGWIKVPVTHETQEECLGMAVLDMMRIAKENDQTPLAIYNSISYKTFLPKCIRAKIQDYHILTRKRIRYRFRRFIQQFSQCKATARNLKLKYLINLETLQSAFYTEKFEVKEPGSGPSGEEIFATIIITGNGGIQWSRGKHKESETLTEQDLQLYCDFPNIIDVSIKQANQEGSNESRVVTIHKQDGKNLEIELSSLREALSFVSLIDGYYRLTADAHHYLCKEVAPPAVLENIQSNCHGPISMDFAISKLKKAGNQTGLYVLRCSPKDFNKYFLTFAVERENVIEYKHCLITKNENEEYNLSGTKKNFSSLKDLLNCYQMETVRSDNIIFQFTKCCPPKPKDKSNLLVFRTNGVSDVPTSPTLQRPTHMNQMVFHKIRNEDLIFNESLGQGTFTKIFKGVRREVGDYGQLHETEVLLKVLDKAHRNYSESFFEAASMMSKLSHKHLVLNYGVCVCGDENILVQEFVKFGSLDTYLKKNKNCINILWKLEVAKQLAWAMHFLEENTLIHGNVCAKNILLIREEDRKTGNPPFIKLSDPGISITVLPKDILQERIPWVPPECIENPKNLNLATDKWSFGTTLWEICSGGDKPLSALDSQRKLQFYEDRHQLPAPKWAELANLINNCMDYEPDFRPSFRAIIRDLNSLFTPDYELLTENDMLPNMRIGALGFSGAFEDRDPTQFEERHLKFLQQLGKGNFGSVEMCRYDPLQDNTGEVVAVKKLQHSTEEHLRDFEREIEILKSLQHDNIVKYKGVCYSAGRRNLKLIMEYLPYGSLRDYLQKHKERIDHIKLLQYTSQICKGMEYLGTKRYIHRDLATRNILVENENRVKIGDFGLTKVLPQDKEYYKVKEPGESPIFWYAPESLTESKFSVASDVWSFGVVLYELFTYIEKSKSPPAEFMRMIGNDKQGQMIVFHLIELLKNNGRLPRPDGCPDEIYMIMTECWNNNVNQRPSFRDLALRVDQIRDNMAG
result.type: phosphorylation enrichment
// keep it numeric: no unit symbol after the value

Worked examples follow.
| seq.string | recorded.result |
| --- | --- |
| GIVKAYYVHAR [AIPL1_Y267_R270H] | 0.866 |
| GFEVVYMTEPI [HSP90AB1_Y512] | 1.4 |

get_value(item= PGVNYYFQVSA , readout=phosphorylation enrichment) returns 2.79

Value of phosphorylation enrichment reported for the sequence IALNSCHSRNC [IFNGR1_Y397_Y397C] is 0.375

Field phosphorylation enrichment (entry KNKNRYKNILP [PTPN11_Y279] ) reads 0.984

# phosphorylation enrichment of LGMSQYFRLFN [CPT2_Y217_D213G] = 3.24

----------
Reported SH2 binding enrichment by item:
biological target: Grb2 SH2 (UniProt P62993); experiment: SH2 binding enrichment of the phosphorylated peptide, bacterial display (enrichment ratio); higher = better substrate or ligand; peptides without Tyr show the background
Sequence (P62993 whole entry, looked up): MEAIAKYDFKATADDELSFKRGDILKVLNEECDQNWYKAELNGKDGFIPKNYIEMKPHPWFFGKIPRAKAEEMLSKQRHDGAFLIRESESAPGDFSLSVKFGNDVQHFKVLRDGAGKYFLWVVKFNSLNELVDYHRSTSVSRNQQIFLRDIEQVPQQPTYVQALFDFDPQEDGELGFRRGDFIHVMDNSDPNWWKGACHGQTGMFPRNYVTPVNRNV
The answer should be written as a number, with no unit following it.

Measured SH2 binding enrichment, VGTKQYMAPEV [ACVRL1_Y375_R374Q] : 0.832

Reported SH2 binding enrichment of LRFEVYGGENE [STOX1_Y610_YF] : 0.723

Sure, the documented SH2 binding enrichment for GDFSRYDEGSG [RECQL5_Y484] is 0.737

Form field SH2 binding enrichment, entry RPSRQYATRDV [SCAMP3_Y35_L38R] : 0.765

Per the record, IEKLPYIDKWF [CPS1_Y872_T871P] has SH2 binding enrichment of 0.782

----------
Reported phosphorylation enrichment values for a set of sequences
test system: c-Src; assay: phosphorylation enrichment, bacterial display (enrichment ratio); higher = better substrate or ligand; peptides without Tyr show the background

| seq.string | recorded.result |
| --- | --- |
| CTTFHYNFMCN [TP53_Y234_I232F_YF] | 0.595 |
| RLLVVYHWTQR [HBD_Y36_P37H] | 0.566 |
| DLFRLYVCVKE [ARID1B_Y1091] | 0.431 |
| RLGDLYEEEMR [VIM_Y150] | 0.425 |

Record DRLTVYIDRVR [LMNA_Y45_A43T] , field phosphorylation enrichment: 0.324

Query LKRCQYVTEKV [ALDOA_Y204] yields phosphorylation enrichment of 0.796

Record ESAAIYNPVIF [RHO_Y301_K296E_YF] . Reported phosphorylation enrichment: 6.99

Sure, the documented phosphorylation enrichment for AVLSLYASGCT [ACTA2_Y145_R149C] is 0.46

ALAHKHHGGGG [HBB_Y146_Y146H] yielded phosphorylation enrichment of 0.505

Measured phosphorylation enrichment, RFLRGYQQDAF [HLA-A_Y137_R138Q_YF] : 0.603

Field phosphorylation enrichment (entry LGGSPYPGVPV [FGFR1_Y701] ) reads 0.359

Summary for this sequence, VDDQIYFFRKP [PBRM1_Y1289_E1287Q_YF] : phosphorylation enrichment is 4.67

----------
test system: Fer (mouse); assay: phosphorylation enrichment, bacterial display (enrichment ratio); higher = better substrate or ligand; peptides without Tyr show the background
Classification field: t = phosphorylation enrichment at or over 0.5; f = phosphorylation enrichment under 0.5.

Here are 3 sequences together with their reported answers.
| seq.string | label.class |
| --- | --- |
| EICTQYEAMAS [GFAP_Y242_R239C] | t |
| NYCPGYNNFYN [USH2A_Y467_R464C] | t |
| RKEAQYMLENE [SLC16A6_Y224] | f |

Prompt: phosphorylation enrichment >= 0.5 for SSYSRYIMMPN [LEF1_Y114_G113R] ?
Completion: t

----------
target: EPHB2 (UniProt P29323); assay: phosphorylation enrichment, bacterial display (enrichment ratio); higher = better substrate or ligand; peptides without Tyr show the background
Sequence (P29323 whole entry, looked up): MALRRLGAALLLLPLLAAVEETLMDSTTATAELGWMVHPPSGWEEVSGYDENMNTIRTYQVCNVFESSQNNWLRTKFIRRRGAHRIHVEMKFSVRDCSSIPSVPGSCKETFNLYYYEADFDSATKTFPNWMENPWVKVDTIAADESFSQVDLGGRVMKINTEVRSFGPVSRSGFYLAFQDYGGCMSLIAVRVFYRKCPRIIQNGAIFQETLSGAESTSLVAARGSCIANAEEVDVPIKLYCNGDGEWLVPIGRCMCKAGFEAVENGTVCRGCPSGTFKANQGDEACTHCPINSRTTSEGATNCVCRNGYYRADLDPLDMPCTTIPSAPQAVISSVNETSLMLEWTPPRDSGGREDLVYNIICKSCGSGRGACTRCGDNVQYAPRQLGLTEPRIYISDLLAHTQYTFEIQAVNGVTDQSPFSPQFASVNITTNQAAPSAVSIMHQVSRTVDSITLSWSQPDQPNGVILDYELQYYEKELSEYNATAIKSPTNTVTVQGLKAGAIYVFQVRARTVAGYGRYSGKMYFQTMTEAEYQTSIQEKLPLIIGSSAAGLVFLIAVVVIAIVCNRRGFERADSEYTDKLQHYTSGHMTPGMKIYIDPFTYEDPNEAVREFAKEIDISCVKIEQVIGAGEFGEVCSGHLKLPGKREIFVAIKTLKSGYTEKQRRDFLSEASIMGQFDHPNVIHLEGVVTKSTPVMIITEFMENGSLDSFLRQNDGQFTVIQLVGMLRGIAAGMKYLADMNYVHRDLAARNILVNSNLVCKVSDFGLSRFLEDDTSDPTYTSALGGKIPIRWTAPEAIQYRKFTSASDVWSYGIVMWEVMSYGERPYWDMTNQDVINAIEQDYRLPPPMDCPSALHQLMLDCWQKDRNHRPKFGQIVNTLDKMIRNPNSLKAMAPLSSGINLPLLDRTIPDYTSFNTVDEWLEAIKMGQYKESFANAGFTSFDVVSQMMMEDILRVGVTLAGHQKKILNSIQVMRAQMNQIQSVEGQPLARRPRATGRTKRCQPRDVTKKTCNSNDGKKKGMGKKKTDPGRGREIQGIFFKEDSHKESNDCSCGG
If the reported phosphorylation enrichment equals or exceeds 0.7, assign YES. If not, assign NO.

As a guide, the following entries are already answered.
| seq.string | label.class |
| --- | --- |
| ETKEDYEKILV [ANXA1_Y335_G333E] | NO |
| AVLSLYASGCT [ACTA2_Y145_R149C] | NO |
| QRKRAYVEIEY [MAK16_Y282] | NO |
| PAIYTYDEYKK [COL8A2_Y648_T645I] | YES |
| CTTIHYNYMCI [TP53_Y234_N239I] | YES |

Please examine the following record next.
Prompt: Textbook exercise: given the entry KASIMYPSNNC [CXCL11_Y52] , state whether its phosphorylation enrichment is greater than or equal to 0.7.
Completion: NO

----------
target: SHP2-C SH2; experiment: SH2 binding enrichment of the phosphorylated peptide, bacterial display (enrichment ratio); higher = better substrate or ligand; peptides without Tyr show the background
result.type: SH2 binding enrichment
Give the figure only, with no unit attached.

| seq.string | result.type | recorded.result |
| --- | --- | --- |
| TTKAKYKTPIY [PLD2_Y573_T577I] | SH2 binding enrichment | 0.775 |
| RIGRKYKKVRF [F8_Y442] | SH2 binding enrichment | 0.275 |
| FSIDHYLGKEM [G6PD_Y202_R198S_YF] | SH2 binding enrichment | 0.953 |
| VDYQPYRKHKY [TEX37_Y28] | SH2 binding enrichment | 1.11 |
| NLNGKYFKPRA [ANGPTL3_Y417_N418Y_YF] | SH2 binding enrichment | 1.16 |
| AAVDTYCRHNF [HLA-DRB1_Y107_YF] | SH2 binding enrichment | 0.593 |

Moving on to another sequence below.
# SH2 binding enrichment (sequence: IKKLIYVYLVI [JAGN1_Y42_H44Y] ) is 1.06

----------
target: MERTK (UniProt Q12866); assay: phosphorylation enrichment, bacterial display (enrichment ratio); higher = better substrate or ligand; peptides without Tyr show the background
Sequence (Q12866 whole entry, looked up): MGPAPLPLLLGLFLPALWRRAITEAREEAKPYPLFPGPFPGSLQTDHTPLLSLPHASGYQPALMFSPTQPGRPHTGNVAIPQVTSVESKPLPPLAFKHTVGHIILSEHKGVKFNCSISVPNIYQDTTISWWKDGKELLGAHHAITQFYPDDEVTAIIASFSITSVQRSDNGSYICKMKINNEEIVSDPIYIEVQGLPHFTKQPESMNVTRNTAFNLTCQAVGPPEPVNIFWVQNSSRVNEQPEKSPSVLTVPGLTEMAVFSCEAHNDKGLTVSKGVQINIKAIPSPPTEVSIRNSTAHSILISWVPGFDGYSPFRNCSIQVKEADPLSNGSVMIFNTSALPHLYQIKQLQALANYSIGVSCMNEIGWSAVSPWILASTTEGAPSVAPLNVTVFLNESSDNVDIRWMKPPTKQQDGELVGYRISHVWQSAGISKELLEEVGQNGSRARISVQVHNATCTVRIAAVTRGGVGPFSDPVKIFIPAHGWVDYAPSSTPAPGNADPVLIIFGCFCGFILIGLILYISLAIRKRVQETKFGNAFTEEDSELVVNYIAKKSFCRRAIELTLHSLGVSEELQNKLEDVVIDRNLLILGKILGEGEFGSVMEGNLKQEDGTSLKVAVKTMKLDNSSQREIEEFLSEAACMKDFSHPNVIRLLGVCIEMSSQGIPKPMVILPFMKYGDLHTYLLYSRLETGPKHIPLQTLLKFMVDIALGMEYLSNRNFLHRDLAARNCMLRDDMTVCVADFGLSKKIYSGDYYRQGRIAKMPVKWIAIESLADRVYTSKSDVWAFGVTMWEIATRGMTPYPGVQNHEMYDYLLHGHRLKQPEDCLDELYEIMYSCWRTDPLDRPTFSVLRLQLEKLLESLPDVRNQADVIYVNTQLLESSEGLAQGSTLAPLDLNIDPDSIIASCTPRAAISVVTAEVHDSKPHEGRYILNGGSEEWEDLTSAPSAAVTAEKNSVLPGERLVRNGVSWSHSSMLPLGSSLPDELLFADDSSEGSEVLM
Criterion: phosphorylation enrichment meeting or surpassing 0.4. Met: met. Not met: not met.

Solved entries (count: 3):
| seq.string | label.class |
| --- | --- |
| KWHREYNFKYV [RICTOR_Y835_S837F] | not met |
| QLHRKYCLSPR [HJURP_Y445_E444K] | met |
| VFPIDYFFPPQ [AR_Y552_L548F_YF] | met |

Prompt: Tell me whether phosphorylation enrichment is at least 0.4 here: IDDNEYAYLKA [HNF4A_Y286]
Completion: met

Prompt: Check the entry WSFNLYDINKD [KCNIP3_Y174_A170S] : does phosphorylation enrichment equal or exceed 0.4?
Completion: met

Prompt: Decide: is the reported value of phosphorylation enrichment for WKEIEYEVVPD [CPS1_Y634_R638P] equal to or greater than 0.4?
Completion: met

Prompt: Does the sequence VSTAVYKRFAS [BEST1_Y148_P152A] have recorded phosphorylation enrichment that is 0.4 or more?
Completion: met

Prompt: Please tell me: is the sequence AGQEKYSAMRD [HRAS_Y64_E63K] at or over 0.4 in terms of phosphorylation enrichment?
Completion: not met

Prompt: Could you please find out whether FAFQLYDLDRD [CHP2_Y123_YF] has phosphorylation enrichment that meets 0.4 or exceeds it?
Completion: met
